Consider the following molecules and their measured MIC readings.
- Tested on: Candida albicans
- EXPERIMENT_NOTES: Antifungal activity against Candida albicans after 16 to 18 hr by serial dilution method
- Format: functional
Give the number; µg/mL is assumed, so skip it.

INSERT INTO measurements (structure_smiles_string, subject_of_test, value_observed) VALUES
  ('CS(=O)(=O)c1ccc(Cc2n[nH]c(=S)n2/N=C/c2ccc(Cl)cc2)cc1', 'Candida albicans', 1.56);

MIC in this record for COc1ccc2cc(/C=N/n3c(Cc4ccc(S(C)(=O)=O)cc4)n[nH]c3=S)ccc2c1 : 6.25

For reference, reported MIC for CS(=O)(=O)c1ccc(Cc2n[nH]c(=S)n2/N=C/c2cccnc2)cc1 stands at 6.25

OC(Cn1cncn1)(Cn1cncn1)c1ccc(F)cc1F has a reported MIC of 0.78

Entry CS(=O)(=O)c1ccc(Cc2n[nH]c(=S)n2/N=C/c2ccccc2Cl)cc1 , MIC reported as 3.12
